# System: HCC1937
# ASSAY_COMMENT: Antiproliferation, CellTiter-Glo, 5 days, HCC1937
# Type: cell-based
# PARTICULARS: Homo sapiens, 120 h, HCC1937, AR− TNBC
pIC50: −log10 of the molar value.
Each entry below lists one item and its recorded pIC50 value.

Here is how some compounds turned out for pIC50.
COc1cc(O[C@H]2C(C)(C)[C@H](NC(=O)c3ccc(N4CCC(CN5CCN(c6ccc(C(=O)N[C@H]7CCC(=O)NC7=O)c(F)c6)CC5)CC4)cc3)C2(C)C)ccc1C#N; < 5.00
N#Cc1ccc(O[C@H]2CC[C@H](NC(=O)c3ccc(N4CCC(CN5CCN(c6cc7c(cc6F)C(=O)N(C6CCC(=O)NC6=O)C7=O)CC5)CC4)nn3)CC2)cc1Cl (stereo partly drawn) [ARV-110, reference compound]; < 5.00

In the following, a different compound is considered.
Recorded result, N#Cc1ccc(O[C@H]2CC[C@H](NC(=O)c3cnc(N4CCC(CN5CCC6(CC5)CN(c5ccc7c(c5)C(=O)N(C5CCC(=O)NC5=O)C7=O)C6)CC4)nn3)CC2)cc1Cl (stereo partly drawn) , pIC50: < 5.00
